Where do the numbers come from? From patent US20090291088A1.

# pEC50 per entry
target system: T1, human IGF-1R expressed on cells (human, UniProt P08069 31-1367)
T1 construct: On MCF-7 tumor cells or on 3T3/CHO transfectants; precursor is processed into alpha and beta subunits; Signal peptide 1-30 left out as stated; also called wild type IGF-1R; IGF-1R 3T3
procedure details: binding to MCF-7 tumor cells
# pEC50: negative log10 of molar concentration; output just the value

binder	pEC50
P1A2.2B11 (antibody, IgG2b, V domains shown, Murine hybridoma antibody, IgG2b/k) VH: QIQLVQSGPELKKPGETVKISCKASGYTFTNHGMNWVKQAPGKGLKWMGWNTSTGEPTYADDFKGRFAFSLETSASTAFLQINNLKNEDTASYFCASPLYYMYGRYIDVWGAGTAVTVSS VL: DIQMTQTTSSLSASLGDRVTISCRASQDISNYLNWYQQKPDGTIKLLIYYTSRLHSGVPSRFSGSGSGTDYSLTISNLEQEDFATYFCQQGKTLPWTFGGGTKLEIK	8.96
P1G10.2B8 (antibody, IgG1, V domains shown, Murine hybridoma antibody, IgG1/k) VH: QIQLVQSGPDLKKPGETVKISCKASGYTFTNHGMNWVKQAPGKDLKWMGWINTNTGEPTYADDFKGRFAFSLETSASTAYLQINNLKNEDTATYFCASPLYYRNGRYFDVWGAGTTVTVSS VL: DIQMTQTTSSLSASLGDRVTISCRASQDISNYLNWYQQKPDGSVKLLIYYTSRLHSGVPSRFSGSGSGTDYSLTISNLEQEDIATYFCQQGKTLPWTFGGGTKLEIK	8.69
P2A7.3E11 (antibody, IgG2a, V domains shown, Murine hybridoma antibody, IgG2a/k; also called muP2A7) VH: QVQLQQSGPELVKPGASVKMSCKASGNTFTDYVINWVKQRTGQGLEWIGEIYPGNENTYYNEKFKGKATLTADKSSNTAYMQLSSLTSEDSAVYFCARGIYYYGSRTRTMDYWGQGTSVTVSS VL: EVVLTQSPTAMAASPGEKITITCSASSTLSSNYLHWYQQKPGFSPKLLIYRTSNLASGVPGRFSGSGSGTSYSLTIGTMEAEDVATYYCQQGSSIPLTFGAGTKLELK	9.35

Note: attention shifts to another entry.
Requested field: pEC50. Item: P1E2.3B12 (antibody, IgG2b, V domains shown, Murine hybridoma antibody, IgG2b/k; also called P1E2 (hybridoma)) VH: QVQLQQPGAELVKPGASVKLSCKASGYTFTSYWMHWVKQRPGQGLEWIGEINPTYGRSNYNEKFKSKATLTVDKSSSTAYMQLSSLTSEDSAVYYCARLVRLRYFDVWGAGTTVTVSS VL: DIVMTQAAFSNPVTLGTSASISCRSSKSLLHSNGITYLYWYLQKPGQSPQLLIYQMSNLASGVPDRFSSSGSGTDFTLRISRVEAEDVGVYYCAQNLELPYTFGGGTKLEIK
9.41
